The values you see were collected from patent US12595230B2.

Target: ERα (Homo sapiens, UniProt P03372)
Construct: host or cells: MCF7
Sequence (P03372 whole entry): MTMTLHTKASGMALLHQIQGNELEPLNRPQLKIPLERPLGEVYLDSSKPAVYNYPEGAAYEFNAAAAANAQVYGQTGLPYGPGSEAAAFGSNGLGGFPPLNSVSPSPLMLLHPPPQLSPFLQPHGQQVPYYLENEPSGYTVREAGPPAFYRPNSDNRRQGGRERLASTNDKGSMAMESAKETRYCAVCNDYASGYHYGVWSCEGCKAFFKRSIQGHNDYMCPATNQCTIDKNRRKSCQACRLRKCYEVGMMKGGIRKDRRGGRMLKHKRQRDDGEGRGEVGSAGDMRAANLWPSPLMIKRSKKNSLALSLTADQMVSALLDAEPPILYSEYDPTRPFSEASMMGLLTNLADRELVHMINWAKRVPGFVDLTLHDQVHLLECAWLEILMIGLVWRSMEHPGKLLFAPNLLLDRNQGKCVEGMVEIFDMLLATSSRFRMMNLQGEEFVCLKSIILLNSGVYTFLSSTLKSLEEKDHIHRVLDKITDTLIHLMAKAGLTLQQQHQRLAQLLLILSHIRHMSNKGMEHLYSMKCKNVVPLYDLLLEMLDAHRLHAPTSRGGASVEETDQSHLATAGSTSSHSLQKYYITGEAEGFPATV
Test: Estrogen receptor degradation activity: breast cancer cell ERα in cell western assay (MCF7 cells)
Assay type: cell-based
Details: 4 hours post compound addition, concentration which degrades 50% of the estrogen receptor, read-out: Degradation IC50
In this section, each of the compounds is paired with its reported DC50.
Response body: numeric value in nM, unit text excluded.

Study these solved cases before continuing.
| Compound | Units Of Measure | Quantitative Result |
| --- | --- | --- |
| O=C(O)c1ccc2c(c1)CCCC(c1ncc(Cl)cc1C(F)(F)F)=C2c1ccc(CC2CN(CCCF)C2)cc1 | nM | 0.5 |
| Cl.O=C(O)c1ccc2c(c1)CCCC(c1ccc(Cl)cc1Cl)=C2c1ccc(CC2CN(CCCF)C2)cc1F | nM | 0.4 |
| CC1CCc2cc(C(=O)O)ccc2C(c2ccc(CC3CN(CCCF)C3)cc2)=C1c1cccc(C(F)(F)F)c1 (racemic) | nM | 0.4 |
| O=C(O)c1ccc2c(c1)CCCC(c1ccccc1Cl)=C2c1ccc(CC2CN(CCCF)C2)cn1 | nM | 48.6 |
| O=C(O)c1ccc2c(c1)CCCC(c1cc(F)cc(F)c1)=C2c1ccc(CC2CN(CCCF)C2)cc1 | nM | 0.3 |

# input for lookup
Give DC50 for O=C(O)c1ccc2c(c1)CCCC(C1C[C@H]3CCC[C@H]3C1)=C2c1ccc(CC2CN(CCCF)C2)cc1 (single isomer, unassigned)
0.9

----------
Target: ERα (Homo sapiens)
Construct: host or cells: MCF7
Assay: Estrogen receptor degradation activity: breast cancer cell ERα in cell western assay (MCF7 cells)
Type: cell-based
Conditions: 4 hours post compound addition, concentration which degrades 50% of the estrogen receptor, read-out: Degradation IC50
Mark each entry Y if its DC50 sits below 0.6 nM, and N for all others.

| Compound | Measured Target | Cat |
| --- | --- | --- |
| O=C(O)c1ccc2c(c1)CCCC(c1ccc(Cl)cc1Cl)=C2c1ccc(CC2(O)CN(CCCF)C2)cc1 [Example 233] | ERα (Homo sapiens) | Y |

Item Cl.O=C(O)c1ccc2c(c1)CCCC(c1ccc(Cl)cc1F)=C2c1ccc(CC2CN(CCCF)C2)cc1 [Example 12] : DC50 beneath 0.6 nM, strictly?
Y

Item CCOC(c1ccc(C2=C(c3ccc(Cl)cc3Cl)CCCc3cc(C(=O)O)ccc32)cc1)C1CN(CCCF)C1 (single isomer, unassigned; isomer 2) [Example 230] : DC50 beneath 0.6 nM, strictly?
N

Item Cc1c(F)ccc(C2=C(c3ccc(CC4CN(CCCF)C4)cc3)c3ccc(C(=O)O)cc3CCC2C)c1C (racemic) [Example 309] : DC50 beneath 0.6 nM, strictly?
Y

Item O=C(O)c1ccc2c(c1)CCCC(C1CC3CCC(C3)C1)=C2c1ccc(CC2CN(CCCF)C2)cc1 (centres unmarked) [Example 316] : DC50 beneath 0.6 nM, strictly?
N

Item Cl.O=C(O)c1ccc2c(c1)CCCC(c1ccccc1)=C2c1ccc(CC2CN(CCCF)C2)cc1 [Example 1, Hydrochloride] : DC50 beneath 0.6 nM, strictly?
Y

Item Cc1cc(OC(F)F)ccc1C1=C(c2ccc(CC3CN(CCCF)C3)cc2)c2ccc(C(=O)O)cc2CCC1 [Example 20] : DC50 beneath 0.6 nM, strictly?
Y

Item O=C(O)c1ccc2c(c1)CCCC(c1ncc(Cl)cc1C(F)(F)F)=C2c1ccc(CC2CN(CCC(F)F)C2)cc1 [Example 291] : DC50 beneath 0.6 nM, strictly?
N

Item Cc1c(C2=C(c3ccc(CC4CN(CCC(F)F)C4)cc3)c3ccc(C(=O)O)cc3CCC2)ccc(Cl)c1F [Example 292] : DC50 beneath 0.6 nM, strictly?
Y
